Study target: AF9 YEATS domain (Homo sapiens)
Sequence (P42568 1-138 limits assumed): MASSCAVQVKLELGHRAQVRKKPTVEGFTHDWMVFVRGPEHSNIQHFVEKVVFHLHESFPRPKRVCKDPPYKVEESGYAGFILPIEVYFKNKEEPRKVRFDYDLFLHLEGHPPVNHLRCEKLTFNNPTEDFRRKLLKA
Reported metric: IC50 (nM)
Your answer should be a plain number; it is taken to be in nM.

Prompt: Entry "O=C(NC1CCC1)c1ccc2nc(-c3cccc(NS(=O)(=O)NCCN4CCCCC4)c3)cn2c1" has what IC50?
Completion: 311

* * *

Study target: ENL YEATS domain (Homo sapiens, UniProt Q03111)
Sequence (Q03111 1-148): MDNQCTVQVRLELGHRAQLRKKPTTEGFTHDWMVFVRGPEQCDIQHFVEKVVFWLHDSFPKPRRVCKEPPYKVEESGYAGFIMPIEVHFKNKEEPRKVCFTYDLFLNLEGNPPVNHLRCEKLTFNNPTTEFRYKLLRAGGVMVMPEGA
Method notes: ENL-H3K27cr HTRF
Run parameters: ENL YEATS HTRF IC50, purified compound
Reported metric: pIC50
Kindly note that pIC50 refers to -log10 of the concentration in mol/L and answer with the value alone.

Prompt: Entry "CC(C)NC(=O)c1ccc2nc(-c3cccc(NS(=O)(=O)NCCc4c[nH]cn4)c3)cn2c1" has what pIC50?
Completion: 6.64

Source listed as paper PMC8161486.
